// growth, % of control at 10 µM lookup, one value per entry
# method: Antiproliferative activity against 394NL cell line at 10 uM
# Type: functional
# conditionParameters: Homo sapiens; values are per cent of control
Provide only the numeric value, understood in %.

C[C@@H]1C[C@H](C)C[C@H](C)[C@@H](O)CC(=O)O[C@H](C[C@H](C)C(=O)O)C/C=C/C=C(/C#N)[C@H](O)[C@@H](C)C1 | 67
C[C@@H]1C[C@H](C)C[C@H](C)[C@@H](O)CC(=O)O[C@H]([C@@H]2CC[C@H]2C(=O)O)C/C=C/C=C(/C#N)[C@H](O)[C@@H](C)C1 | 3
C[C@@H]1C[C@H](C)C[C@H](C)[C@@H](O)CC(=O)O[C@H]([C@H](C)[C@H](C)C(=O)O)C/C=C/C=C(/C#N)[C@H](O)[C@@H](C)C1 | 4
CS[C@H](C[C@@H]1C/C=C/C=C(/C#N)[C@H](O)[C@@H](C)C[C@H](C)C[C@H](C)C[C@H](C)[C@@H](O)CC(=O)O1)C(=O)O | 64

Item: C[C@@H]1C[C@H](C)C[C@H](C)[C@@H](O)CC(=O)O[C@H]([C@@H]2CCC[C@H]2C(=O)O)C/C=C/C=C(/C#N)[C@H](O)[C@@H](C)C1 | growth, % of control at 10 µM: 2

C[C@@H]1C[C@H](C)C[C@H](C)[C@@H](O)CC(=O)O[C@H]([C@H](C)CC(=O)O)C/C=C/C=C(/C#N)[C@H](O)[C@@H](C)C1 has a reported growth, % of control at 10 µM of 9

response.value for C[C@@H]1C[C@H](C)C[C@H](C)[C@@H](O)CC(=O)O[C@H](C[C@@H](C)C(=O)O)C/C=C/C=C(/C#N)[C@H](O)[C@@H](C)C1 (field: growth, % of control at 10 µM) = 9

###

Reported inhibition at 10 µM by item:
# Tested on: A498
# method: Antiproliferative activity against A498 cell line at 10 uM
# Type: functional
# conditionParameters: Homo sapiens
Quick note: unit goes after the number.

A selection of reference data follows.
C[C@@H]1C[C@H](C)C[C@H](C)[C@@H](O)CC(=O)O[C@H]([C@@H]2CC[C@H]2C(=O)O)C/C=C/C=C(/C#N)[C@H](O)[C@@H](C)C1 | 9%
CS[C@H](C[C@@H]1C/C=C/C=C(/C#N)[C@H](O)[C@@H](C)C[C@H](C)C[C@H](C)C[C@H](C)[C@@H](O)CC(=O)O1)C(=O)O | 68%
C[C@@H]1C[C@H](C)C[C@H](C)[C@@H](O)CC(=O)O[C@H](C[C@H](C)C(=O)O)C/C=C/C=C(/C#N)[C@H](O)[C@@H](C)C1 | 78%
C[C@@H]1C[C@H](C)C[C@H](C)[C@@H](O)CC(=O)O[C@H](C[C@@H](C)C(=O)O)C/C=C/C=C(/C#N)[C@H](O)[C@@H](C)C1 | 30%

Reported inhibition at 10 µM ( C[C@@H]1C[C@H](C)C[C@H](C)[C@@H](O)CC(=O)O[C@H]([C@H](C)CC(=O)O)C/C=C/C=C(/C#N)[C@H](O)[C@@H](C)C1 ) = 21%

The compound C[C@@H]1C[C@H](C)C[C@H](C)[C@@H](O)CC(=O)O[C@H]([C@H](C)[C@H](C)C(=O)O)C/C=C/C=C(/C#N)[C@H](O)[C@@H](C)C1 showed inhibition at 10 µM equal to 9%

Per the record, C[C@@H]1C[C@H](C)C[C@H](C)[C@@H](O)CC(=O)O[C@H]([C@@H]2CCC[C@H]2C(=O)O)C/C=C/C=C(/C#N)[C@H](O)[C@@H](C)C1 [BORRELIDIN] has inhibition at 10 µM of 8%
